This section presents compounds with their documented pIC50 values.
study_target: various mutants of kinase EGFR (BaF3 cell lines stably transfected with kinase) (Homo sapiens, UniProt P00533, T790M, form not given)
Construct: other: BaF3 cells stably transfected with EGFR Δ19Del/T790M; MTS, 48 h; other: BaF3 cell line stably transfected with EGFR Δ19Del/T790M; MTS, 48
Sequence (P00533 with tags, fused parts or gaps DEL746-750/T790M, form open): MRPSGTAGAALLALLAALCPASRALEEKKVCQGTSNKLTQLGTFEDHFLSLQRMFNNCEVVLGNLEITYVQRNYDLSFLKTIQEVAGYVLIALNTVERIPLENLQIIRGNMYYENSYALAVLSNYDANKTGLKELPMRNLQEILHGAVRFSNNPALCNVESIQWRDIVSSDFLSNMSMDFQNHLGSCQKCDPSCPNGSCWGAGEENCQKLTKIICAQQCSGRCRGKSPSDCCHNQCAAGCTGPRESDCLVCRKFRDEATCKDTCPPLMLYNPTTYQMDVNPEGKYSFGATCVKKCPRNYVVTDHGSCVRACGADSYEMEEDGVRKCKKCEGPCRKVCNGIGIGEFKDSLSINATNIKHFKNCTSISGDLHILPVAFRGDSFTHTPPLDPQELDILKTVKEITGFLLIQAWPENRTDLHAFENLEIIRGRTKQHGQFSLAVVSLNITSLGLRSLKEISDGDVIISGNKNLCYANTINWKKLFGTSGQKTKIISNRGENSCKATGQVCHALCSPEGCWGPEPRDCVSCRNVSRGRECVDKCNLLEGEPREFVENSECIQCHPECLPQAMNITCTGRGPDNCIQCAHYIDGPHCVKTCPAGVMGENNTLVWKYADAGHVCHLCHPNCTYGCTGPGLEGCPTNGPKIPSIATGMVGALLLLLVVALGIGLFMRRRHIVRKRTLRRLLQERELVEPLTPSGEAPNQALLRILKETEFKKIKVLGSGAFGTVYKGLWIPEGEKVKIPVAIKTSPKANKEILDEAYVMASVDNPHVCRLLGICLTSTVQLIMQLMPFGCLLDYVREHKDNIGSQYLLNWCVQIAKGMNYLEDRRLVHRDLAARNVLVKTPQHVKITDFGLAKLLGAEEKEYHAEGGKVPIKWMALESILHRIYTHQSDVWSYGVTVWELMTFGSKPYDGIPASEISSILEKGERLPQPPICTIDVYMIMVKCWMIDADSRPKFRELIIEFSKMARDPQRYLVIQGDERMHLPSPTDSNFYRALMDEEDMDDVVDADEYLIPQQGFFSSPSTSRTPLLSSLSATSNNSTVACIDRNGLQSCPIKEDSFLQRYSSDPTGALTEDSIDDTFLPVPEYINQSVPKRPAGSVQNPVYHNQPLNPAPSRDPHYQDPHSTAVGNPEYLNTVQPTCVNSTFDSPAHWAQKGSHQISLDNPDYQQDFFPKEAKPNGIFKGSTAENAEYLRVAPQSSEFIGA
protocol_text: Growth inhibitory activity of compounds on BaF3 cell lines stably transfected with kinase (MTS, 48 h)
Type: cell-based
assay_setup: BaF3 cell line stably transfected with EGFR Δ19Del/T790M, read-out: Δ19Del/ T790M growth inhibitory activity IC50
pIC50: −log10 of the molar value.

Study these solved cases before continuing.
- CCc1cc(Nc2nc(Nc3ccc4nccnc4c3N(C)S(C)(=O)=O)c3[nH]ccc3n2)c(OC)cc1N1CCC(N(C)C)CC1: 5.60 to 6.30
- CCc1cc(Nc2nc(Nc3ccc4nccnc4c3N(C)S(C)(=O)=O)c3cc[nH]c3n2)c(OC)cc1N1CCC(N(C)C)C1 (stereo not shown): 6.30 to 7.30
- COc1cc(N2CCC(N3CCN(C)CC3)CC2)ccc1Nc1ncc(Br)c(Nc2ccc3nccnc3c2NS(C)(=O)=O)n1: 6.30 to 7.30

Ask: Please report the measured pIC50 for CCc1cc(Nc2ncc(Br)c(Nc3ccc4nccnc4c3NS(C)(=O)=O)n2)c(OC)cc1N1CCC(N2CCN(C)CC2)CC1
Result: ≥ 7.30
